- System: U2OS
- test_method_notes: Multiplex assay against U2OS
- Assay type: toxicity, cell-based
- experimental_context: human, 12 h, 1 µM, compound concentration 1 uM, replicate 1
value_type: Population Mitochondria Different-Phenotype (%)
Report as a plain number; the unit % is understood.

Recorded results for 2 compounds are shown here.
In [3]: df
Out[3]:
                                   compound  target  recorded_result
0  Cc1nc(-c2cn3c(n2)-c2ccc(-c4cnn(C(C)(C)C(N)=O)c4)cc2OCC3)n(C(C)C)n1    U2OS               10
1  Cl.N#Cc1ccc2[nH]cc(CCCCN3CCN(c4ccc5oc(C(N)=O)cc5c4)CC3)c2c1 [VILAZODONE HYDROCHLORIDE]    U2OS               28

[ask] Look up and report measured Population Mitochondria Different-Phenotype (%) for this entry: "CN1CCN(c2ccc(OC(F)(F)F)c(Nc3ncc4c(n3)-c3c(c(C(N)=O)nn3CCO)CC4)c2)CC1"
[reply] 10

[ask] Look up and report measured Population Mitochondria Different-Phenotype (%) for this entry: "Cc1c(-c2ccc(O)cc2)n(Cc2ccc(OCCN3CCCCCC3)cc2)c2ccc(O)cc12"
[reply] 13
